- assay_system: Solute carrier family 2, facilitated glucose transporter member 3 (Homo sapiens, UniProt P11169)
- Sequence (P11169 whole entry): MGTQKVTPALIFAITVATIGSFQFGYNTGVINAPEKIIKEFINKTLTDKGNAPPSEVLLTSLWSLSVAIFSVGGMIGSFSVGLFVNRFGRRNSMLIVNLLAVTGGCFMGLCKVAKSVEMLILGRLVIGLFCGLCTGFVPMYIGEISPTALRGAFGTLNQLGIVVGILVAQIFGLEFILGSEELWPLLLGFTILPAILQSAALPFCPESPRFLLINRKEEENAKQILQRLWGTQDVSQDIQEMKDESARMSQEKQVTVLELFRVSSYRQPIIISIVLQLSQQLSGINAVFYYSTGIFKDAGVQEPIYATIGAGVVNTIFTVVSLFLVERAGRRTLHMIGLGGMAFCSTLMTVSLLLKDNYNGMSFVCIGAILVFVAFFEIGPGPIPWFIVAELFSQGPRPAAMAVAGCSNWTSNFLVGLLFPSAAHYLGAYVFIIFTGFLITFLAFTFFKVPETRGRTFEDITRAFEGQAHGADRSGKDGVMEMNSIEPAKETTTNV
- method_description: Inhibition of human GLUT3 expressed in GLUT1 knock-out DLD1 cells assessed as ATP production co-incubated with 300 mM glucose for 16 hrs by CellTiter-Glo assay in presence of oxidative phosphorylation inhibitor rotenone
# IC50 per record follows
// note: answer is a bare numeric in nM

These solved cases illustrate the format of a correct answer.
{"columns": ["structure", "experimental_readout", "readout_unit", "recorded_number"],
 "data": [
  ["COc1cnccc1N1CCN(c2ncnc3c2cnn3-c2ccccc2)CC1", "IC50", "nM", 1510],
  ["COc1ccc(C(N)=O)cc1N1CCN(c2ncnc3c2cnn3-c2ccccc2)CC1", "IC50", "nM", 37],
  ["COc1ccc(C#N)cc1N1CCN(c2ncnc3c2cnn3-c2ccccc2)CC1", "IC50", "nM", 50],
  ["COc1ccccc1N1CCN(c2ncnc3c2cnn3C2CCCC2)CC1", "IC50", "nM", 120],
  ["COc1ccccc1N1CCN(c2ncnc3c2nnn3-c2ccccc2)CC1", "IC50", "nM", 430],
  ["N#Cc1cccc(N2CCN(c3ncnc4c3cnn4-c3ccccc3)CC2)c1", "IC50", "nM", 69]
]}

Supply measured IC50 of `COc1ccccc1N1CCN(c2ccnc3c2cnn3-c2ccccc2)CC1` in your reply.
4000

----------
- assay_system: Solute carrier family 2, facilitated glucose transporter member 1 (Homo sapiens, UniProt P11166)
- Sequence (P11166 whole entry): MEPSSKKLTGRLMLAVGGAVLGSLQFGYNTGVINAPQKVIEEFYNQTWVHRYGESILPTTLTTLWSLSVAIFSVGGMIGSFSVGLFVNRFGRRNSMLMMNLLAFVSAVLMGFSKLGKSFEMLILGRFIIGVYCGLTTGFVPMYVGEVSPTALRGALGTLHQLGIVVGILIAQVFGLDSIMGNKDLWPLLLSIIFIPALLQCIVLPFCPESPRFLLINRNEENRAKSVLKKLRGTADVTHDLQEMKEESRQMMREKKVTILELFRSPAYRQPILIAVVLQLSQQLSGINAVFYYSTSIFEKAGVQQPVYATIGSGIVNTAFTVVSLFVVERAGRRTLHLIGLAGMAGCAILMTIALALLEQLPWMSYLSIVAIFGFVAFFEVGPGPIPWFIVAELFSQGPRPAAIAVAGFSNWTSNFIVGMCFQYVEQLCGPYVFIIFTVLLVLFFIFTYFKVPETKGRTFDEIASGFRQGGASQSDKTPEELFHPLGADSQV
- method_description: Inhibition of human GLUT1 expressed in DLD1 cells assessed as ATP production co-incubated with 100 mM glucose for 16 hrs by CellTiter-Glo assay in presence of oxidative phosphorylation inhibitor rotenone
# pIC50 per record follows
Answer as the number alone; pIC50 is minus log10 of concentration in mol/L.

{"columns": ["compound", "pIC50"],
 "data": [
  ["COc1ccccc1N1CCCN(c2ncnc3c2cnn3-c2ccccc2)CC1", 8.40],
  ["COc1ccccc1N1CCN(c2ncnc3c2cnn3-c2cc(F)ccc2OC)CC1", 7.52],
  ["COc1ccccc1N1CCN(c2ncnc3c2cnn3-c2ccccn2)CC1", 6.29],
  ["COc1ccccc1N1CCN(c2ncnc3c2[nH]c(=O)n3-c2ccccc2)CC1", 7.28],
  ["COc1ccccc1N1CCN(c2ncnc3c2cnn3-c2ccc(F)cc2)CC1", 7.77],
  ["COc1ccccc1N1CCC(c2ncnc3c2cnn3-c2ccccc2)CC1", 6.33],
  ["COc1ccncc1N1CCN(c2ncnc3c2cnn3-c2ccccc2)CC1", 8.05],
  ["COc1ccccc1N1CCN(c2ncnc3c2cnn3-c2ccccc2)CC1C (centres undefined)", 7.85]
]}

Supply measured pIC50 of `COc1ccccc1C1CCN(c2ncnc3c2cnn3-c2ccccc2)CC1` in your reply.
5.72

Supply measured pIC50 of `COc1ccccc1N1CC2(C1)CN(c1ncnc3c1cnn3-c1ccccc1)C2` in your reply.
5.36

Supply measured pIC50 of COc1ccccc1N1CCN(c2ncnc3c2cnn3C(C)c2ccccc2)CC1 (centres undefined) in your reply.
6.39

Supply measured pIC50 of `Fc1cccc(N2CCN(c3ncnc4c3cnn4-c3ccccc3)CC2)c1` in your reply.
6.54

Supply measured pIC50 of `COc1cnccc1N1CCN(c2ncnc3c2cnn3-c2ccccc2)CC1` in your reply.
6.64

Supply measured pIC50 of `COc1ccccc1N1CCN(c2ncnc3c2ncn3-c2ccccc2)CC1` in your reply.
7.57

----------
- assay_system: UniProtKB P11168
- method_description: Inhibition of human GLUT2 expressed in CHO cells assessed as ATP production co-incubated with 30 mM fructose for 16 hrs by CellTiter-Glo assay in presence of oxidative phosphorylation inhibitor rotenone
experimental_readout: pIC50
Answer as the number alone; pIC50 is minus log10 of concentration in mol/L.

These solved cases illustrate the format of a correct answer.
{"columns": ["molecule", "recorded_number"],
 "data": [
  ["COc1ccccc1N1CCN(c2ncnc3c2cnn3C2CCCC2)CC1", 5.70],
  ["COc1ccc(C(N)=O)cc1N1CCN(c2ncnc3c2cnn3-c2ccccc2)CC1", 7.00]
]}

Supply measured pIC50 of `COc1ccccc1N1CCN(c2ncnc3c2cnn3-c2ccccc2C)CC1` in your reply.
6.00

Supply measured pIC50 of COc1ccccc1N1CCN(c2ncnc3c2cnn3C(C)c2ccccc2)CC1 (stereo not given) in your reply.
5.68

----------
- assay_system: Solute carrier family 2, facilitated glucose transporter member 2 (Homo sapiens)
- Sequence (P11168 whole entry): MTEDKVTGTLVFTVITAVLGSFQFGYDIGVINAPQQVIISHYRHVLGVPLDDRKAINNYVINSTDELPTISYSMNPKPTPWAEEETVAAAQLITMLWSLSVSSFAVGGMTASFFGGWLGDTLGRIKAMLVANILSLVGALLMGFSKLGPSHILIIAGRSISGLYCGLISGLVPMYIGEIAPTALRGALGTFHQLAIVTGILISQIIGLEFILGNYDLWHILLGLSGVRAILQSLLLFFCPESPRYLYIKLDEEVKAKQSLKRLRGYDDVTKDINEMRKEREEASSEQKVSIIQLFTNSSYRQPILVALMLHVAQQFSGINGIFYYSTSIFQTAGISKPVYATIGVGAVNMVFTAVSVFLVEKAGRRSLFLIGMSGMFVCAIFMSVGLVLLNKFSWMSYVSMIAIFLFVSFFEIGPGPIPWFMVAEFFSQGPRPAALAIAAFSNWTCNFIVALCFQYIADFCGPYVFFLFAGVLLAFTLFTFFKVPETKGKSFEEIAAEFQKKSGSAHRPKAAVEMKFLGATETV
- method_description: Inhibition of human GLUT2 expressed in CHO cells assessed as ATP production co-incubated with 30 mM fructose for 16 hrs by CellTiter-Glo assay in presence of oxidative phosphorylation inhibitor rotenone
# pIC50 per record follows
Answer as the number alone; pIC50 is minus log10 of concentration in mol/L.

These solved cases illustrate the format of a correct answer.
{"columns": ["structure", "experimental_readout", "recorded_number"],
 "data": [
  ["COc1ncccc1N1CCN(c2ncnc3c2cnn3-c2ccccc2)CC1", "pIC50", 5.87],
  ["COc1ccccc1N1CCN(c2ncnc3c2nnn3-c2ccccc2)CC1", "pIC50", 5.48],
  ["COc1ccc(N2CCN(c3ncnc4c3cnn4-c3ccccc3)CC2)cc1", "pIC50", 5.06]
]}

Supply measured pIC50 of `COc1ccccc1N1CCCN(c2ncnc3c2cnn3-c2ccccc2)CC1` in your reply.
7.68

Supply measured pIC50 of `COc1ccccc1N1CCN(c2ncnc3c2cnn3-c2ccccc2OC)CC1` in your reply.
5.92

----------
- assay_system: Solute carrier family 2, facilitated glucose transporter member 1 (Homo sapiens, UniProt P11166)
- method_description: Inhibition of human GLUT1 expressed in DLD1 cells assessed as ATP production co-incubated with 100 mM glucose for 16 hrs by CellTiter-Glo assay in presence of oxidative phosphorylation inhibitor rotenone
So basically, the class depends on measured IC50, and the ranges are bucket 1: < 40 nM; bucket 2: ≥ 40 nM and < 200 nM; bucket 3: ≥ 200 nM

{"columns": ["compound", "class_label"],
 "data": [
  ["COc1ccccc1N1CCN(c2ncnc3c2cnn3-c2ccc(C)cc2)CC1", "bucket 3"]
]}

Class? Entry: `COc1ccccc1N1CCN(c2ncnc3c2nnn3-c2ccccc2)CC1`
bucket 2

Class? Entry: `COc1ccc(N2CCN(c3ncnc4c3cnn4-c3ccccc3)CC2)cc1`
bucket 3

Class? Entry: `COc1ccc(F)cc1N1CCN(c2ncnc3c2cnn3-c2ccccc2)CC1`
bucket 1

Class? Entry: `COc1ncccc1N1CCN(c2ncnc3c2cnn3-c2ccccc2)CC1`
bucket 2

Class? Entry: OC1CCCCC1N1CCN(c2ncnc3c2cnn3-c2ccccc2)CC1 (configuration not stated)
bucket 3

----------
- method_description: Oral bioavailability in Wistar rat at 5 mg/kg
- Assay type: ADME, organism-based
- test_conditions: in vivo
experimental_readout: bioavailability (%)
// note: answer is a bare numeric in %

Supply measured bioavailability of `COc1ccccc1N1CCN(c2ncnc3c2cnn3-c2ccccc2F)CC1` in your reply.
67

----------
- assay_system: Solute carrier family 2, facilitated glucose transporter member 1 (Homo sapiens, UniProt P11166)
- method_description: Inhibition of human GLUT1 expressed in DLD1 cells assessed as ATP production co-incubated with 100 mM glucose for 16 hrs by CellTiter-Glo assay in presence of oxidative phosphorylation inhibitor rotenone
# pIC50 per record follows
Answer as the number alone; pIC50 is minus log10 of concentration in mol/L.

{"columns": ["structure", "experimental_readout", "recorded_number"],
 "data": [
  ["COc1ccc(C#N)cc1N1CCN(c2ncnc3c2cnn3-c2ccccc2)CC1", "pIC50", 7.70],
  ["COc1c(C#N)cccc1N1CCN(c2ncnc3c2cnn3-c2ccccc2)CC1", "pIC50", 5.92],
  ["Fc1ccccc1N1CCN(c2ncnc3c2cnn3-c2ccccc2)CC1", "pIC50", 6.57],
  ["COc1cccnc1N1CCN(c2ncnc3c2cnn3-c2ccccc2)CC1", "pIC50", 7.22],
  ["COc1c(F)cccc1N1CCN(c2ncnc3c2cnn3-c2ccccc2)CC1", "pIC50", 5.62]
]}

Supply measured pIC50 of `COc1ccccc1N1CCN(c2ncnc3c2cnn3-c2ccccc2OC)CC1` in your reply.
7.30

Supply measured pIC50 of `COc1ccccc1N1CCN(c2ccnc3c2cnn3-c2ccccc2)CC1` in your reply.
6.52

Supply measured pIC50 of `COc1ccccc1N1CCN(c2nccc3c2cnn3-c2ccccc2)CC1` in your reply.
5.40
